- Tested on: RBL-2H3 cells
- Type: cell-based, rat
- RUN_CONDITIONS: pH 7.4
Ends that are not written are not given here.
ASSAY_READOUT: pEC50
Numbers only, as −log10 of the molar value.

Please review the entries below; each comes with its answer.
INWLKLGKAVIDAL-NH2 [Protopolybia-MPIII] = 4.65
INWLKLGKKILGAL-NH2 [PDD-B] = 4.66
INLKAIAALVKKVL-NH2 [HR1] = 4.31
INWKALLDAAKKVL-NH2 [Protonectarina-MP] = 4.33
INLKAIAALAKKLF-NH2 [Mastoparan-AF] = 4.74

Dear reader, for each entry below, please note its pEC50.
1. IDWKKLLDAAKQIL-NH2 [Polybia-MPI]
2. INWAKLGKLALQAL-NH2 [Ropalidia-MP]
3. INLKVFAALVKKLL-NH2 [Mastoparan-T2]

Result:
1: 4.63; 2: 4.48; 3: 4.62

Your task in this section: give pEC50 for each listed record.
1. FDVMGIIKKIASAL-NH2 [EMP-EF]
2. IKWKAILDAVKKVL-NH2 [Mastoparan-A]
3. INWLKLGKQILGAL-NH2 [Pm-R3]
4. LNFKALAALAKKIL-NH2 [Pm-R2]
5. INWKKMAATALKMI-NH2 [Parapolybia-MP]
6. INWKKIKSLIKAAMS-NH2 [MP-V2]
7. INWKAILQRIKKML-NH2 [Agelaia-MPII]
8. FDLLGLVKKVASAL-NH2 [EpVP2a]

Result:
4.60
4.55
5.12
4.02
4.05
4.05
4.46
4.50

Okay, here is my list. What is pEC50 for each of these?
1. INLFGFAALVKKFL-NH2 [Mastoparan-T4]
2. INLKAIAAFAKKLL-NH2 [Mastoparan-T]
3. IDWLKLGKMVMDVL-NH2 [Polybia-MPIII]

Result:
1. 4.74
2. 3.86
3. 3.94

For each of the substances below, state pEC50.
1. INWKAIIEAAKQAL-NH2 [Protopolybia-MPII]
2. INWLKLGKKILGAI-NH2 [Pm-R1]

Result:
4.11
4.64

For each of the items listed, what is its pEC50?
1. INLKALAALVKKVL-NH2 [Mastoparan-II]
2. INLLKIAKGIIKSL-NH2 [EMP-AF]
3. INWLKLGKKMMSAL-NH2 [MP]
4. INWKKIASIGKEVLKAL-NH2 [PMM2]
5. INWLKLGKMVIDAL-NH2 [Polybia-MPII]

Result:
4.23
4.11
4.18
4.44
5.17

# return pEC50 for each item in the list
1. INLKALLAVAKKIL-NH2 [Mastoparan-C]
2. VDWKKIGQHILSVL-NH2 [Mastoparan-J]
3. INWKKIKSIIKAAMN-NH2 [MP-V1]

Result:
[4.49, 4.43, 3.89]

# batch size: 8; output pEC50 per entry
1. INWLKLGKKVSAIL-NH2 [Protopolybia-MPI]
2. INWLKLGKAIIDAL-NH2 [Agelaia-MPI]
3. FDLLGLVKSVVSAL-NH2 [EpVP2b]
4. LKLMGIVKKVLGAL-NH2 [MP-EM1]
5. INLKVFAALVKKFL-NH2 [Mastoparan-T1]
6. INWKKIFQKVKNLV-NH2 [PDD-A]
7. INWKGIAAMAKKLL-NH2 [Mastoparan-X(V)]
8. LKLLGIVKKVLGAI-NH2 [EMP-EM2]

Result:
1. 3.93
2. 5.28
3. 4.59
4. 3.71
5. 4.49
6. 4.18
7. 4.10
8. 4.14

The reported numbers originate from paper PMC10222454.
